pEC50 for assorted molecules
# target_system: human FSH receptor (Homo sapiens, UniProt P23945)
# Construct: ATCC), line rhFSHR-cLUC
# protocol_summary: hFSHR CHO cAMP assay (rhFSHR-cLUC cells, FSH-stimulated cAMP, radioimmunoassay)
# particulars: inhibition of cAMP produced by EC70 dose of FSH (4.85 nM); maximum concentration 50 μM
The meaning of pEC50 here: minus log10 of the concentration in molar units.

>>> reported_result("C[C@H](CN(CC(=O)NCc1ccc(CN)cc1)C(=O)c1ccc(-c2ccccc2Cl)cc1)c1ccccc1")
5.11
>>> reported_result("COc1ccccc1CCN(CC(=O)NCc1ccc(CN)cc1)S(=O)(=O)c1ccc(Cl)s1")
5.01
>>> reported_result("COc1ccccc1CN(CC(=O)NCC1CCC(CN)CC1)S(=O)(=O)c1ccc(-c2cnc(SC)nc2)s1 (stereo not drawn)")
5.31
>>> reported_result("COc1ccccc1CCN(CC(=O)NCc1ccc(CN)cc1)S(=O)(=O)c1ccccc1-c1ccccc1C")
5.92
>>> reported_result("COc1ccccc1CCN(CC(=O)NCC1CCCC(CN)C1)S(=O)(=O)c1ccc(-c2ccccc2OC)cc1 (stereo not drawn)")
6.36
>>> reported_result("COc1ccccc1CCN(CC(=O)NCCCCCCN)S(=O)(=O)c1ccc(-c2ccccc2C)cc1")
6.96

// switching to the query molecule
// sample C[C@@H](CN(CC(=O)NCC1CCCC(CN)C1)S(=O)(=O)c1ccc(-c2ccccc2Cl)cc1)c1ccccc1 (stereo partly drawn) , its pEC50 was 6.48

----------
# target_system: human FSH receptor (Homo sapiens)
# Construct: ATCC), line rhFSHR-cLUC
# Sequence (P23945 18-695): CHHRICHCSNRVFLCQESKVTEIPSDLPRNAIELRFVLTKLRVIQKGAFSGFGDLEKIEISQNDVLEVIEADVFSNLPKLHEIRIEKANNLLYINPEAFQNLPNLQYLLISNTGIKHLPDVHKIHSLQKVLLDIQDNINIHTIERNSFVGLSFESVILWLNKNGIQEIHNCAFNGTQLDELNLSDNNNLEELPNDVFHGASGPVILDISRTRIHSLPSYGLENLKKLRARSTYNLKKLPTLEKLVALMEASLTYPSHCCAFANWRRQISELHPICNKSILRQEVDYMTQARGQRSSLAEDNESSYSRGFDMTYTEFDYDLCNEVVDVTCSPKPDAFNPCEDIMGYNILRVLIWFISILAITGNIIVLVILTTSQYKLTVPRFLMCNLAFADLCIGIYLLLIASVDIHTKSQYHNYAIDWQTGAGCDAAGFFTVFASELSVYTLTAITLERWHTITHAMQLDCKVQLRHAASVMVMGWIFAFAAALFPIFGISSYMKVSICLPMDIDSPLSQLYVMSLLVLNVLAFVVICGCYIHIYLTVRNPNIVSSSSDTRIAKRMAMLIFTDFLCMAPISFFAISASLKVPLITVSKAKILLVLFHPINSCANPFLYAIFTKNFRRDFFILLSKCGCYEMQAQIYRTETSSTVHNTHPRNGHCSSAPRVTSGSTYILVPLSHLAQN
# protocol_summary: hFSHR CHO cAMP assay (rhFSHR-cLUC cells, FSH-stimulated cAMP, radioimmunoassay)
# particulars: inhibition of cAMP produced by EC70 dose of FSH (4.85 nM); maximum concentration 50 μM
pEC50: −log10 of the molar value.
Kind request: treat 6 as inclusive, so pEC50 at 6 or higher is true (1), anything lower is false (0).

>>> class_label("CC(=O)NCc1ccc(CNC(=O)CN(C[C@H](C)c2ccccc2)S(=O)(=O)c2ccc(-c3ccccc3Cl)cc2)cc1")
"false (0)"
>>> class_label("COc1ccccc1CN(CC(=O)NCC1CCCC(CN)C1)S(=O)(=O)c1ccc(-c2ccccc2C)cc1 (centres unmarked)")
"true (1)"
>>> class_label("CC(=O)NCc1ccc(CNC(=O)CN(CC(C)c2ccccc2)S(=O)(=O)c2ccc(-c3ccccc3C)cc2)cc1 (centres unmarked)")
"false (0)"
>>> class_label("COc1ccccc1CCN(CC(=O)NCc1ccc(CN)cc1)S(=O)(=O)c1ccc(-c2cccs2)cc1")
"false (0)"
>>> class_label("Cc1ccccc1-c1ccc(S(=O)(=O)N(CC(=O)NCC2CCC(CN)CC2)C[C@H](C)c2ccccc2)cc1 (some centres unmarked)")
"true (1)"

In plain terms: is recorded pEC50 at least 6 for C[C@@H](CN(CC(=O)NCc1ccc(CN(C)C)cc1)S(=O)(=O)c1ccc(-c2ccccc2Cl)cc1)c1ccccc1 ?
false (0)

In plain terms: is recorded pEC50 at least 6 for COc1ccccc1CCN(CC(=O)NCc1ccc(CN)cc1)S(=O)(=O)c1ccc(-c2ccccc2C)s1 ?
true (1)
